Measured β-Galactosidase activity, listed per entry.
Biological target: VgEcR and RXR heterodimeric receptor (pVgRXR) with pIND/LacZ(SPI) in CHO cells (Drosophila melanogaster, UniProt P34021, E282G/G283S/G286V)
Construct: host or cells: CHO cells (ATCC CCL-61), transiently transfected or stably transformed with pVgRXR
Sequence (P34021 whole entry E282G/G283S/G286V): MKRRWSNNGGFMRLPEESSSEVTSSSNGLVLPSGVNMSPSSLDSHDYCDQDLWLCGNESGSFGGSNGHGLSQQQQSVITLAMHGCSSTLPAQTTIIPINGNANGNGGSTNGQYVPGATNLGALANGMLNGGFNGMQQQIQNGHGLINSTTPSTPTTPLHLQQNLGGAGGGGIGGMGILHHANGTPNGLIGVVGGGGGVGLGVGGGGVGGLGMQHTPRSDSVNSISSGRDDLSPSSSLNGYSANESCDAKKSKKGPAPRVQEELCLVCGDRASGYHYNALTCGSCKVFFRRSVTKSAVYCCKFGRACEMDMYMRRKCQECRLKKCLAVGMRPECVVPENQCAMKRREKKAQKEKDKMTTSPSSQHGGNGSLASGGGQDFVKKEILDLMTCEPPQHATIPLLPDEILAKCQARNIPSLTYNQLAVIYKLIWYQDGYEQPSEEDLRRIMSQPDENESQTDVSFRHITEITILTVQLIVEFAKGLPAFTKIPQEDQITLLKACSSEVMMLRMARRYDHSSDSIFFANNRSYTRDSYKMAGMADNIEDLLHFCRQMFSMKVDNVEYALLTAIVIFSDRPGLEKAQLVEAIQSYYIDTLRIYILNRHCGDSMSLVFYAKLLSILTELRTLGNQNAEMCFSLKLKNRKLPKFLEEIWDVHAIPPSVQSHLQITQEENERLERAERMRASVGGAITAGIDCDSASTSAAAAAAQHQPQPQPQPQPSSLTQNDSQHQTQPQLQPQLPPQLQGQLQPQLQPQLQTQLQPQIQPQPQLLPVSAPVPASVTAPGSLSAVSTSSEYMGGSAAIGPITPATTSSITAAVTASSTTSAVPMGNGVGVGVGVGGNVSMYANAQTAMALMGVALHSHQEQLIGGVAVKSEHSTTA
Sequence (P19793 whole entry partner): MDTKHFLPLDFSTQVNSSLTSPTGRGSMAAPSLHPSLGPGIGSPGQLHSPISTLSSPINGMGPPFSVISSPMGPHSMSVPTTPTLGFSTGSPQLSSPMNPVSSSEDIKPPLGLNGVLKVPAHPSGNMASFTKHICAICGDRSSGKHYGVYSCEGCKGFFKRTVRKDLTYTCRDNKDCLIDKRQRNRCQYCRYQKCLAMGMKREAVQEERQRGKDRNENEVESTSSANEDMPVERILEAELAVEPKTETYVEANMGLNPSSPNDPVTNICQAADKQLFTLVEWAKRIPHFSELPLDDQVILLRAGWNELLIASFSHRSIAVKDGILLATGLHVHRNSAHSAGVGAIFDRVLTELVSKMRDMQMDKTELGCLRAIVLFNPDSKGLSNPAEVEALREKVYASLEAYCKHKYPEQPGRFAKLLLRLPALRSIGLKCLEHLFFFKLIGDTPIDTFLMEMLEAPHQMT
Experiment: β-Galactosidase gene activation in stably transformed CHO cells
Assay type: cell-based
Details: ligand 10 μM, average of triplicate samples, no ligand = 200
Description: pVgRXR (Invitrogen Corp., Carlsbad, Calif.) is an […] plasmid that expresses both VgEcR and RXR to form a modified heterodimeric nuclear receptor (see No, D., et. al., (1996) Proc. Natl. Acad. Sci. USA, 93, 3346-3351). […]
Write the answer as a number in RLU, unit excluded.

Study these solved cases before continuing.
{"compound": "CC(C)CC[C@@H](O)[C@](C)(O)[C@H]1CC[C@@]2(O)C3=CC(=O)[C@@H]4C[C@@H](O)[C@@H](O)C[C@]4(C)[C@H]3CC[C@]12C [CE-4, ponasterone A, reference compound]", "measurementType": "β-Galactosidase activity", "unitOfMeasure": "RLU", "reportedResult": 10386}
{"compound": "CC(C)(C)N(NC(=O)c1ccccc1)C(=O)c1ccccc1 [CE-2, 1,2-dibenzoyl-1-tert-butyl-hydrazine, reference compound]", "measurementType": "β-Galactosidase activity", "unitOfMeasure": "RLU", "reportedResult": 145}

Any idea what its β-Galactosidase activity is? The compound is CCc1c(OC)cccc1C(=O)NN(C(=O)c1cc(C)cc(C)c1)C(C)(C)C
11599

---

Measured Plodia log(1/IC50), listed per entry.
Biological target: ecdysteroid receptor complex in Plodia interpunctella (IAL-PID2) nuclear extract (Plodia interpunctella)
Sequence (Q6RVD3 1-541): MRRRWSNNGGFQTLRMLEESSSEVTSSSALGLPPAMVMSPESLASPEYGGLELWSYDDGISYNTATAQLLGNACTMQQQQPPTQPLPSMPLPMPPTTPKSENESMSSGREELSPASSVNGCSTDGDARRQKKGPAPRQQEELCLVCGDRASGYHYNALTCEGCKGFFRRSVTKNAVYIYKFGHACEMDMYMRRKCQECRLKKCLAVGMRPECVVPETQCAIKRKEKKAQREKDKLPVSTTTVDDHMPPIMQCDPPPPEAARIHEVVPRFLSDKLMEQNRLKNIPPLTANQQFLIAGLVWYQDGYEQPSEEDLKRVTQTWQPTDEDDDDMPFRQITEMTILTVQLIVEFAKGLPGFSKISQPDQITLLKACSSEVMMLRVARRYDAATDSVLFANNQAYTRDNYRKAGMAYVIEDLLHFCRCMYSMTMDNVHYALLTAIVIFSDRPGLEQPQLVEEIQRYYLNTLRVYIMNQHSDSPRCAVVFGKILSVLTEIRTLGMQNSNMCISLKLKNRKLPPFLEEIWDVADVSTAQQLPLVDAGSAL
Sequence (Q6IVK1 1-415 partner): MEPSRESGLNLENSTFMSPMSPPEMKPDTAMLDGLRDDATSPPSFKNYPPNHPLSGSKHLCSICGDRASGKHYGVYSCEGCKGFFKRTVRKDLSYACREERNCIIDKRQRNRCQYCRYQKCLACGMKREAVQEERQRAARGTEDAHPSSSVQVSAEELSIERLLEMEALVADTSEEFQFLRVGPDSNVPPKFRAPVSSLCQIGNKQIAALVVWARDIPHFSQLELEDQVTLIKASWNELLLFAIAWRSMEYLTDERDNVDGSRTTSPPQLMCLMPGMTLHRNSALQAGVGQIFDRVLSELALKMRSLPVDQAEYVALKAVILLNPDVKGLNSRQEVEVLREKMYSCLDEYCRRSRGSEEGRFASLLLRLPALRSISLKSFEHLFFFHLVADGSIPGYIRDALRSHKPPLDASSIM
Assay: Competitive 3H-ponasterone A binding assay, Plodia nuclear ecdysone receptor extract
Conditions: 3H-ponasterone A displacement
Form rule: numeric answer, no unit written next to it.

Any idea what its Plodia log(1/IC50) is? The compound is CCc1c(OC)cccc1C(=O)NN(C(=O)c1cc(C)cc(Cl)c1)C(C)(C)C
8.80
